assay: Residual rate (A90/A0×100) after 90 h accelerated deterioration in xenon weather meter X25, color developing durability; format: physicochemical; conditions: photochromic laminate by coating method; xenon weather meter 90 hours

[
  {
    "compound": "CCCCCCCCC1(CCCCCCCC)c2cc([Si](c3ccccc3)(c3ccccc3)c3ccccc3)ccc2-c2c1c1c(c3cc(OC)c(N(c4ccccc4)c4ccccc4)cc23)OC(c2ccc(OCCC)cc2)(c2ccc(OCCC)cc2)C=C1 [Example 56 Formula (128)]",
    "Residual rate (%)": 81
  },
  {
    "compound": "COc1ccc(C2(c3ccc(OC)cc3)C=Cc3c4c(c5cc(N(c6ccccc6)c6ccccc6)c(OC)cc5c3O2)-c2ccccc2C4(C)C)cc1 [Example 2 Formula (30)]",
    "Residual rate (%)": 82
  },
  {
    "compound": "CCCCOc1ccc(C2(c3ccc(OC)cc3)C=Cc3c4c(c5cc(N(C)c6ccccc6)c(OC)cc5c3O2)-c2ccc(-c3ccc(C(C)(C)C)cc3)cc2C4(CC)CC)cc1 (stereo not shown) [Example 45 Formula (94)]",
    "Residual rate (%)": 80
  },
  {
    "compound": "CCCC1(CCC)c2ccccc2-c2c1c1c(c3cc(OC)c(N(c4ccccc4)c4ccc(C)cc4)cc23)OC(c2ccc(OC)cc2)(c2ccc(OC)cc2)C=C1 [Example 13 Formula (68)]",
    "Residual rate (%)": 83
  },
  {
    "compound": "CCCCN(c1ccccc1)c1cc2c3c(c4c(c2cc1OC)OC(c1ccc(OC)cc1)(c1ccc(OCCC)cc1)C=C4)C(CC)(CC)c1cc(OC(F)(F)F)ccc1-3 (stereo not shown) [Example 51 Formula (117)]",
    "Residual rate (%)": 75
  },
  {
    "compound": "CCCOc1ccc(C2(c3ccc(OCCC)cc3)C=Cc3c4c(c5cc(N(C)c6ccc(C)cc6)c(OC)cc5c3O2)-c2ccccc2C4(CCCCOC)CCCCOC)cc1 [Example 20 Formula (85)]",
    "Residual rate (%)": 81
  },
  {
    "compound": "COc1ccc(C2(c3ccc(OC)cc3)C=Cc3c4c(c5cc(N6CCCCC6)c(OC)cc5c3O2)-c2ccccc2C4(C)C)cc1 [Formula (E), reference compound]",
    "Residual rate (%)": 51
  },
  {
    "compound": "CCCCN(c1ccc(C(F)(F)F)cc1)c1cc2c3c(c4c(c2cc1OC)OC(c1ccc(C)cc1)(c1ccc(OC)cc1)C=C4)C1(CCCCCCCCCCC1)c1cc(OC)ccc1-3 (stereo not shown) [Example 54 Formula (123)]",
    "Residual rate (%)": 78
  },
  {
    "compound": "CCCCC1(CCCC)c2cc([Si](C)(C)C(C)(C)C)ccc2-c2c1c1c(c3cc(OC)c(N(CC)c4ccccc4)cc23)OC(c2ccc(OC)cc2)(c2ccc(OCCC)cc2)C=C1 (stereo not shown) [Example 46 Formula (99)]",
    "Residual rate (%)": 78
  },
  {
    "compound": "COc1ccc(C2(c3ccc(OC)cc3)C=Cc3c4c(c5cc(N(C)c6ccc(F)cc6)c(OC)cc5c3O2)-c2ccccc2C4(C)C)cc1 [Example 4 Formula (34)]",
    "Residual rate (%)": 80
  }
]

====

assay: Residual rate (A90/A0×100) after 90 h accelerated deterioration in xenon weather meter X25, color developing durability; assay type: physicochemical; conditions: photochromic laminate prepared by coating method; after 90 h accelerated deterioration

[
  {
    "compound": "COc1ccc(C2(c3ccc(N4CCOCC4)cc3)C=Cc3c4c(c5cc(N6CCc7ccccc76)c(C)cc5c3O2)-c2ccc(OC)cc2C4(CCCC(F)(F)F)CCCC(F)(F)F)cc1 (stereo not drawn) [Formula (45A)]",
    "Residual rate": "65%"
  },
  {
    "compound": "COc1ccc(C2(c3ccc(OC)c(OC)c3)C=Cc3c4c(c5cc(N6CCc7ccccc76)c(OC)cc5c3O2)-c2ccccc2C4(CCC(F)(F)F)CCC(F)(F)F)cc1 (stereo not drawn) [Formula (67A)]",
    "Residual rate": "73%"
  },
  {
    "compound": "CCCc1ccc(C2(c3ccc(OC)cc3)C=Cc3c4c(c5cc(N6CCc7ccccc76)c(OC)cc5c3O2)-c2ccc(-c3ccc(C(F)(F)F)cc3)cc2C4(CCOC)CCOC)cc1 (stereo not drawn) [Formula (85A)]",
    "Residual rate": "65%"
  },
  {
    "compound": "COCCOCCOCCC1(CCOCCOCCOC)c2ccccc2-c2c1c1c(c3cc(OC)c(N4CCc5cc(F)ccc54)cc23)OC(c2ccc(OC)cc2)(c2ccc(OC)cc2)C=C1 [Formula (50A)]",
    "Residual rate": "70%"
  },
  {
    "compound": "CCCOc1ccc(C2(c3ccc(OC)cc3)C=Cc3c4c(c5cc(N6CCc7ccccc76)c(C)cc5c3O2)-c2ccc(-c3ccc(F)c(F)c3F)cc2C4(CCCCOC)CCCCOC)cc1F (stereo not drawn) [Formula (78A)]",
    "Residual rate": "64%"
  },
  {
    "compound": "COc1ccc(C2(c3ccc(OC)cc3)C=Cc3c4c(c5cc(N6CCc7cc(C)ccc76)c(OC)cc5c3O2)-c2ccccc2C4(C)C)cc1 [Formula (52A)]",
    "Residual rate": "76%"
  },
  {
    "compound": "CCCCC1(CCCC)c2cc(C(F)(F)F)ccc2-c2c1c1c(c3cc(C)c(N4CCc5ccccc54)cc23)OC(c2ccc(OC)cc2)(c2ccc(OC)c(C)c2)C=C1 (stereo not drawn) [Formula (64A)]",
    "Residual rate": "64%"
  },
  {
    "compound": "COc1ccc(C2(c3ccc(N(c4ccccc4)c4ccccc4)cc3)C=Cc3c4c(c5cc(N6CCc7ccccc76)c(OC)cc5c3O2)-c2ccccc2C42CCC3(CCCCC3)CC2)cc1 (stereo not drawn) [Formula (57A)]",
    "Residual rate": "65%"
  },
  {
    "compound": "COc1ccc(C2(c3ccc(OC)cc3)C=Cc3c4c(c5cc(N6CCCCC6)c(OC)cc5c3O2)-c2ccccc2C4(C)C)cc1 [Formula (E), reference compound]",
    "Residual rate": "51%"
  },
  {
    "compound": "CCCOc1ccc(C2(c3ccc(OCCC)cc3)C=Cc3c4c(c5cc(N6CCc7cc(C(F)(F)F)ccc76)c(OC)cc5c3O2)-c2ccccc2C4(CCC)CCC)cc1 [Formula (54A)]",
    "Residual rate": "69%"
  },
  {
    "compound": "CCCOc1ccc(C2(c3ccc(OCCC)cc3)C=Cc3c4c(c5cc(N6CCc7ccccc76)c(OC)cc5c3O2)-c2ccc(-c3ccc(C)cc3)cc2C42CCCCCCC2)cc1 [Formula (35A)]",
    "Residual rate": "75%"
  },
  {
    "compound": "CCC1(CC)CCC2(CC1)c1cc(-c3ccccc3)ccc1-c1c2c2c(c3cc(OC)c(N4CCc5ccccc54)cc13)OC(c1ccc(C)cc1)(c1ccc(N(C)c3ccccc3)cc1)C=C2 (stereo not drawn) [Formula (60A)]",
    "Residual rate": "69%"
  },
  {
    "compound": "CCCCCCOc1ccc(C2(c3ccc(OCCCCCC)cc3)C=Cc3c4c(c5cc(N6CCc7cc(OC)ccc76)c(OC)cc5c3O2)-c2ccc(-c3ccc(C(F)(F)F)cc3)cc2C42CC(C)(C)CC(C)(C)C2)cc1 [Formula (48A)]",
    "Residual rate": "69%"
  },
  {
    "compound": "COc1ccc(C2(c3ccc(OC)cc3)C=Cc3c4c(c5cc(N6CCc7ccccc76)c(-c6ccc(OC)cc6OC)cc5c3O2)-c2ccccc2C4(C)C)cc1 [Formula (I), reference compound]",
    "Residual rate": "71%"
  },
  {
    "compound": "COc1ccc(C2(c3ccc(OC)cc3)C=Cc3c4c(c5cc(N6CCc7ccccc76)c(OC)cc5c3O2)-c2ccccc2C4(C)C)cc1 [Formula (28A)]",
    "Residual rate": "74%"
  }
]

====

Measured A35/A23 *100 accompanies every entry in the list below.
experiment: High-temperature color development rate (A35/A23×100), temperature dependency; assay type: physicochemical; conditions: photochromic laminate prepared by coating method
readout: A35/A23 *100 (%)

[
  {
    "compound": "CCCCC1(CCCC)c2cc(C(F)(F)F)ccc2-c2c1c1c(c3cc(C)c(N4CCc5ccccc54)cc23)OC(c2ccc(OC)cc2)(c2ccc(OC)c(C)c2)C=C1 (stereo not drawn) [Formula (64A)]",
    "readoutUnits": "%",
    "recordedMeasurement": 65
  },
  {
    "compound": "COc1ccc(C2(c3ccc(OC)cc3)C=Cc3c4c(c5cc(N6CCOCC6)c(OC)cc5c3O2)-c2ccccc2C4(C)C)cc1 [Formula (A), reference compound]",
    "readoutUnits": "%",
    "recordedMeasurement": 69
  },
  {
    "compound": "CCCc1ccc(C2(c3ccc(OC)cc3)C=Cc3c4c(c5cc(N6CCc7ccccc76)c(OC)cc5c3O2)-c2ccc(-c3ccc(C(F)(F)F)cc3)cc2C4(CCOC)CCOC)cc1 (stereo not drawn) [Formula (85A)]",
    "readoutUnits": "%",
    "recordedMeasurement": 69
  }
]

Values from patent EP4692071A1
